Test: Metabolic stability in rat liver microsomes assessed as compound remaining at 2 uM after 45 mins by LC/MS analysis
Assay type: ADME, Microsome
Details: read-out: Stability
measuredParameter: remaining at 0.75 h, 2 µM (%)

Use the examples below as a reference point.
structure	remaining at 0.75 h, 2 µM [%]
O=c1c(Br)c(OCc2ccc(F)cc2)ccn1Cc1cccc(F)c1	26
Cc1cc(OCc2ccc(F)cc2F)c(Br)c(=O)n1Cc1ccc(C(=O)N(C)C)cc1	51
Cc1cc(OCc2ccc(F)cc2F)c(Br)c(=O)n1Cc1ccc(CNC(=O)CO)cc1	82

I: Cc1cc(OCc2ccc(F)cc2F)c(Br)c(=O)n1Cc1ccc(C(N)=O)cc1
II: Cc1cc(OCc2ccc(F)cc2F)c(Br)c(=O)n1Cc1ccc(CN(C)C)cc1
III: O=c1c(Br)c(OCc2ccc(F)cc2F)ccn1Cc1cccc(F)c1
Prompt: Please give the order of these compounds when sorted by remaining at 0.75 h, 2 µM, largest value leading. Your answer should be the labels, listed in the requested order.
Completion: I, II, III

1: Cc1cc(OCc2ccc(F)cc2F)c(Br)c(=O)n1Cc1cccc(CN)c1
2: Cc1cc(OCc2ccc(F)cc2F)c(Br)c(=O)n1Cc1cccc(CN(C)C)c1
3: O=c1c(Br)c(OCc2ccccc2)ccn1Cc1ccccc1
Prompt: Please give the order of these compounds when sorted by remaining at 0.75 h, 2 µM, largest value leading. Your answer should be the labels, listed in the requested order.
Completion: 1, 2, 3
(1: 99%, 2: 39%, 3: 3%)

Provenance of the data: ChEMBL document CHEMBL1154277
